Observed Ki values for FKBP12 (Homo sapiens, UniProt P62942) are listed in what follows.
Quick reminder: number only, in nM, skip the unit.

Q: Tell me reported Ki for CCOCc1cccc(COCC)c1-c1ccc([C@H](CCN2CCOCC2)OC(=O)[C@@H]2CCCCN2C(=O)C(=O)CC(C)C)s1 [Compound 84] , tested with FKBP12 (Homo sapiens, UniProt P62942).
Sequence (P62942 whole entry, species assumed): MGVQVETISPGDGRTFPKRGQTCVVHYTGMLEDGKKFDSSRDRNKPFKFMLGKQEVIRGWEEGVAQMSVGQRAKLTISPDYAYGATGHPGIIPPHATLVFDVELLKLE
Result: 2000

Q: Tell me reported Ki for CCOCc1cc2ccccc2n1-c1cccc([C@@H](CCN2CCOCC2)OC(=O)[C@@H]2CCCCN2C(=O)C(=O)C2(C)CCCCC2)c1 [Compound 86] , tested with FKBP12 (Homo sapiens, UniProt P62942).
Result: 14

Q: Tell me reported Ki for CCC/C=C(\c1cncc([C@H](OC(=O)[C@@H]2CCCCN2C(=O)C(=O)C(C)(C)C(C)C)/C(C)=C/c2ccncc2)c1)C1CCCCC1 [Compound 98] , tested with FKBP12 (Homo sapiens, UniProt P62942).
Result: 62
